system.name: Polyadenylate-binding protein 1 (Homo sapiens, UniProt P11940)
Sequence (P11940 whole entry, the tested form may be a part): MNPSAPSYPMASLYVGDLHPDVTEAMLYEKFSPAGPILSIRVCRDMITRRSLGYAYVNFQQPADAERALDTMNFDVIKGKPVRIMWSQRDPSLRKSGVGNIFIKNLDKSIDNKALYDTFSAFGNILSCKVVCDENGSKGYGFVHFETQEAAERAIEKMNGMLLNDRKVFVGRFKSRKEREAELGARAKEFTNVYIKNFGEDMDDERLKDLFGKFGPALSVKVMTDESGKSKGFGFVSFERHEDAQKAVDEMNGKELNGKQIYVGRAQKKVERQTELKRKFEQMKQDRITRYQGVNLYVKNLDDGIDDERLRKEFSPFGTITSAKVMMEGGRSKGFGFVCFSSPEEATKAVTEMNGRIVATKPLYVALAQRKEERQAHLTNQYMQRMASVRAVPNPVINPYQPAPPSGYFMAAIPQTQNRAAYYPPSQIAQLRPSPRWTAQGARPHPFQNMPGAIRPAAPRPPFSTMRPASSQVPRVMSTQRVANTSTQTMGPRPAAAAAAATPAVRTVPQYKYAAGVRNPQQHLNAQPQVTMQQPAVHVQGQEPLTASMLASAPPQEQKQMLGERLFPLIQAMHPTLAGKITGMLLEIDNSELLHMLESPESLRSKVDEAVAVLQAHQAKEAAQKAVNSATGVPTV
assay.name: MLLE domain peptide-binding blockers, IC50 – biochemical, fluorescence polarization, FITC-PAM2 peptide, dose response (AID 602259)
Format: functional
conditions: read-out: IC50_Mean
Activity calls are given as the source filed them. No stated cut-off is given here; in the data, active = IC50 of 20 µM or less and inactive = more.
experimental.endpoint: IC50

Some solved cases for reference:
O=C(COc1ccccc1)Nc1nc(-c2ccncc2)cs1 ... > 66 µM (inactive)
O=C(CSc1nc(O)c(Cc2ccccc2)c(=O)[nH]1)Nc1ccccc1 ... > 66 µM (inactive)
N=C(N)SCP(=O)(c1ccccc1)c1ccccc1 ... > 66 µM (inactive)
O=C(NC(=S)Nc1ccc(Oc2ccccc2)cc1)c1ccc(Cl)cc1 ... > 66 µM (inactive)
COP(=S)(OC)Oc1ccc(Sc2ccc(OP(=S)(OC)OC)cc2)cc1 ... > 66 µM (inactive)
CC(NC(=O)CSC1=NCCS1)c1ccccc1 (stereo unspecified) ... > 66 µM (inactive)
COc1ccc(N=C(S)NC(NC(=O)c2cccc(Cl)c2)C(Cl)(Cl)Cl)c([N+](=O)[O-])c1 (stereo unspecified) ... > 66 µM (inactive)
Cc1cc(C)cc(N2C(=O)CC(Sc3ccccc3C(=O)O)C2=O)c1 (stereo unspecified) ... > 66 µM (inactive)
CC(OC(=O)CSc1ccc([N+](=O)[O-])cc1)C(=O)NC1CC1 (stereo unspecified) ... > 66 µM (inactive)
CC(=O)N1C(=O)/C(=C2\SC(=S)N(c3c(C)n(C)n(-c4ccccc4)c3=O)C2=O)c2ccccc21 ... > 66 µM (inactive)

Continue with the next compound.
Exam item: # get_value(readout='IC50', item= `Nc1nnc(S)n1N=C1C(=O)Nc2ccccc21` )
Marked response: > 66 µM (inactive)

The values you see were collected from ChEMBL document CHEMBL1201862.
